Source: the nanobody polyreactivity screen of Harvey et al. (2022)

assay.overview: yeast display, Sf9 membrane polyspecificity reagent, FACS + sequencing; frameworks hold sequencing errors
parameter: polyreactivity (PSR sort gate)

Here is how some sequences turned out for polyreactivity (PSR sort gate).
QVQLVESGGGLVQAGGSLRLSCAASGSTFKRYAMGWYRQPPGKERELVASISSGGSTNYADSVKGRFTISRDNAKNSVYLQMNSLKPEDTAVYYCAAGYHVSTRGLIGHFDYWGQGTQVTVSS ... high polyreactivity
QVQLVESGGCLVQAGGSLRLSCAASGFTFIRYAMGWYRQAPGKERELVAAITVSGTRTYYADSVKGRFTISRDNAKNTVYLQMNSLKPEDTAVYYCNARDVYTGYGMGYWGQGSQVTVSS ... high polyreactivity
QVQLVESGGGLVQAGGSLRLSCAASGRISQSNAMGWYRQAPGKERELVAAISWRGGSTYYADSVKGRFTISRDNAKNTVYLQMNSLKPEDTAVYYCAVRGKYDRHYYWGQGTQVTVSS ... high polyreactivity
QVQLVESGGGLVQAGGSLRLSCAASGFPIHAYVMGWYRQAPGKERELVAAISSGGSTYYADSVKGRFTISRDNAKKTVYLQMNSLKPEDTAVYYCAAGYPYYWHFDYWGQGTQVTVSS ... low polyreactivity

Next:
Which measured polyreactivity (PSR sort gate) value corresponds to QFHLVESGGGLVQAGGSLRLSCAASGRNLVRYAMGCYRQAPGKERELVAAISKSGGSTYYADSVKGRFTISRDNAKNTVYLQMNSLKPEDTAVYYSNALVRRRPGYIRYDYWGQGTQVTVSS ? low polyreactivity
